B1: TFE3 (parent)
chain: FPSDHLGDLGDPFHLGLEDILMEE

Variants of: B1
Assay: protein stability index of a GFP-peptide fusion (GPS, HEK-293T) (PSI 1-6); higher = more stable;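 also: lentivirally expressed fusions sorted by FACS into six bins by GFP to DsRed ratio, PSI derived from sequencing read proportions per bin multiplied by bin number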
Conditions: c terminus: a fixed tail appended
protein stability index values for the variants below.

Worked cases, answers included:
# CHANGES, protein stability index
records = [
    ("L9P", 3.42),
    ("L9S", 3.69),
    ("E23C", 2.03),
]

QUERY: # lookup: protein stability index of I20G
RESULT: 4.16

QUERY: Next entry: H5N
RESULT: 3.87

QUERY: Next entry: D8H
RESULT: 2.73

QUERY: Next entry: I20F
RESULT: 3.82

QUERY: Next entry: P2S
RESULT: 3.96

QUERY: Next entry: L17I
RESULT: 3.22

QUERY: Next entry: L15F
RESULT: 3.36

QUERY: Next entry: E23Q
RESULT: 3.26
